molecular target: Serotonin 5HT7 receptors (Homo sapiens (Human), UniProt P34969); experiment: Radiolabel Binding Studies for Serotonin 5HT7 receptors; conditions: read-out: 5-HT7 % inhib @ 10 uM;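 also: displacement of a tritiated radioligand from membranes of stably transfected cells carrying recombinant 5-HT7 receptor, with filter-bound radioactivity measured by scintillation counting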
Sequence (P34969 whole entry): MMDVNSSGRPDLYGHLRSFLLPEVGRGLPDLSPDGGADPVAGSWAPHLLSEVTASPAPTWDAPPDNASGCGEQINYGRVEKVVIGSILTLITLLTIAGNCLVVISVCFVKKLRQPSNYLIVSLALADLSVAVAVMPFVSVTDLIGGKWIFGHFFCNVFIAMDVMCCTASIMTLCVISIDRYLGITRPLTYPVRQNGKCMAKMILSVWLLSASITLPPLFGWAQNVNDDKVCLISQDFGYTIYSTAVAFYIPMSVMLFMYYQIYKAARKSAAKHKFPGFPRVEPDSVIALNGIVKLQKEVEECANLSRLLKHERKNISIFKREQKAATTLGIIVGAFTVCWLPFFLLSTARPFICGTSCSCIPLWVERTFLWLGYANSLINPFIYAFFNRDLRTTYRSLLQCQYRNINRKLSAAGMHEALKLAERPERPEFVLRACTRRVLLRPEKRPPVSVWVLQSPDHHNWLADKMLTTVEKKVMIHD
OBSERVED PROPERTY: inhibition at 10 µM

O=C1OC(CCN2CCN(c3ccc(Cl)cc3)CC2)CC12CCCCC2 (centres unmarked) [Entry 28]
98%
CCC1(CC)CC(CCN2CCN(c3ccc([N+](=O)[O-])cc3)CC2)OC1=O (centres unmarked) [Entry 2]
93.3%
CCC1(CC)CC(CCN2CCN(c3ccc(C)cc3C)CC2)OC1=O (centres unmarked) [Entry 17]
56.2%
O=C1OC(CCN2CCN(c3ccc(C(F)(F)F)cn3)CC2)CC12CCCCC2 (centres unmarked) [Entry 35]
91.1%

Here's the next entry for you.
q: Name the recorded inhibition at 10 µM of the item Cc1ccc(N2CCN(CCCC3CC(c4ccccc4)(c4ccccc4)C(=O)O3)CC2)cc1 (centres unmarked) [Entry 46] in your answer.
a: 96.8%
